conditions: 313.15 K; 100 kPa; Liquid; Frequency=3 MHz; Sing-around technique in a fixed-path interferometer
Reported property: speed of sound (m/s)
Write down the numeric answer in m/s and omit the unit.

Problem: // returns reported speed of sound for input CC1CCC(=O)O1 (centres undefined)
Result: 1375.9

Problem: // returns reported speed of sound for input O=C1CCCCCO1
Result: 1491.2

Problem: // returns reported speed of sound for input CC1CC(=O)O1 (centres undefined)
Result: 1298.8

Problem: // returns reported speed of sound for input O=C1CCCCO1
Result: 1516

###

Field: speed of sound. Provide a value for each of the molecules that follow.
details: 308.15 K; 100 kPa; Liquid; Frequency=3 MHz; Sing-around technique in a fixed-path interferometer
Write down the numeric answer in m/s and omit the unit.

Problem: // returns reported speed of sound for input CC1CC(=O)O1 (centres undefined) [4-methyl-2-oxetanone]
Result: 1316.7

Problem: // returns reported speed of sound for input CC1CCC(=O)O1 (centres undefined) [γ-valerolactone]
Result: 1393.5

Problem: // returns reported speed of sound for input O=C1CCCCO1 [1-oxacyclohexan-2-one]
Result: 1533.5

Problem: // returns reported speed of sound for input O=C1CCCCCO1 [6-hexanolactone]
Result: 1510

###

details: 308.15 K; 100 kPa; Liquid; Vibrating tube method
Field: mass density. Provide a value for each of the compounds that follow.
Write down the numeric answer in kg/m3 and omit the unit.

Problem: // returns reported mass density for input CC1CC(=O)O1 (stereo not given)
Result: 1039.85

Problem: // returns reported mass density for input O=C1CCCCO1
Result: 1094.83

Problem: // returns reported mass density for input CCCC[n+]1ccn(C)c1.O=S(=O)([N-]S(=O)(=O)C(F)(F)F)C(F)(F)F
Result: 1426.62

Problem: // returns reported mass density for input CC1CCC(=O)O1 (stereo not given)
Result: 1039.87

Problem: // returns reported mass density for input O=C1CCCCCO1
Result: 1063.15

###

settings: 293.15 K; 100 kPa; Liquid; Capillary tube (Ostwald / Ubbelohde) method
Reported property: viscosity (mPa·s)
Write down the numeric answer in mPa·s and omit the unit.

Problem: // returns reported viscosity for input CC1CC(=O)O1 (centres undefined) [4-methyl-2-oxetanone]
Result: 1.68

Problem: // returns reported viscosity for input CC1CCC(=O)O1 (centres undefined) [γ-valerolactone]
Result: 1.99

Problem: // returns reported viscosity for input O=C1CCCCCO1 [6-hexanolactone]
Result: 6.63

Problem: // returns reported viscosity for input O=C1CCCCO1 [1-oxacyclohexan-2-one]
Result: 3.68

###

settings: 318.15 K; 100 kPa; Liquid; Vibrating tube method
Reported property: mass density (kg/m3)
Write down the numeric answer in kg/m3 and omit the unit.

Problem: // returns reported mass density for input O=C1CCCCCO1
Result: 1054.65

Problem: // returns reported mass density for input CCCC[n+]1ccn(C)c1.O=S(=O)([N-]S(=O)(=O)C(F)(F)F)C(F)(F)F
Result: 1416.58

Problem: // returns reported mass density for input CC1CC(=O)O1 (stereo not given)
Result: 1028.79

Problem: // returns reported mass density for input CC1CCC(=O)O1 (stereo not given)
Result: 1030.45

Problem: // returns reported mass density for input O=C1CCCCO1
Result: 1085.71

###

settings: 323.15 K; 100 kPa; Liquid; Capillary tube (Ostwald / Ubbelohde) method
Field: viscosity. Provide a value for each of the compounds that follow.
Write down the numeric answer in mPa·s and omit the unit.

Problem: // returns reported viscosity for input CC1CCC(=O)O1 (centres undefined)
Result: 1.23

Problem: // returns reported viscosity for input CC1CC(=O)O1 (centres undefined)
Result: 1.18

Problem: // returns reported viscosity for input O=C1CCCCCO1
Result: 3.17

Problem: // returns reported viscosity for input O=C1CCCCO1
Result: 2.09

###

conditions: 308.15 K; 100 kPa; Liquid; Capillary tube (Ostwald / Ubbelohde) method
Reported property: viscosity (mPa·s)
Write down the numeric answer in mPa·s and omit the unit.

Problem: // returns reported viscosity for input O=C1CCCCO1
Result: 2.7

Problem: // returns reported viscosity for input CC1CC(=O)O1 (centres undefined)
Result: 1.4

Problem: // returns reported viscosity for input CC1CCC(=O)O1 (centres undefined)
Result: 1.53

Problem: // returns reported viscosity for input O=C1CCCCCO1
Result: 4.44

###

conditions: 323.15 K; 100 kPa; Liquid; Frequency=3 MHz; Sing-around technique in a fixed-path interferometer
Field: speed of sound. Provide a value for each of the compounds that follow.
Write down the numeric answer in m/s and omit the unit.

Problem: // returns reported speed of sound for input CC1CC(=O)O1 (centres undefined)
Result: 1263.6

Problem: // returns reported speed of sound for input O=C1CCCCCO1
Result: 1454.5

Problem: // returns reported speed of sound for input O=C1CCCCO1
Result: 1481.5

Problem: // returns reported speed of sound for input CC1CCC(=O)O1 (centres undefined)
Result: 1341.2

###

settings: 303.15 K; 100 kPa; Liquid; Frequency=3 MHz; Sing-around technique in a fixed-path interferometer
Field: speed of sound. Provide a value for each of the molecules that follow.
Write down the numeric answer in m/s and omit the unit.

Problem: // returns reported speed of sound for input O=C1CCCCCO1 [6-hexanolactone]
Result: 1529

Problem: // returns reported speed of sound for input CC1CC(=O)O1 (centres undefined) [4-methyl-2-oxetanone]
Result: 1334.7

Problem: // returns reported speed of sound for input O=C1CCCCO1 [1-oxacyclohexan-2-one]
Result: 1551.3

Problem: // returns reported speed of sound for input CC1CCC(=O)O1 (centres undefined) [γ-valerolactone]
Result: 1411.3

###

conditions: 298.15 K; 100 kPa; Liquid; Capillary tube (Ostwald / Ubbelohde) method
± gives the expanded uncertainty stated by the source.
Reported property: viscosity
Note to self: number, then unit, no commentary.

Problem: // returns reported viscosity for input CC1CCC(=O)O1 (centres undefined)
Result: 1.82 ± 0.07 mPa·s

Problem: // returns reported viscosity for input CC1CC(=O)O1 (centres undefined)
Result: 1.55 ± 0.06 mPa·s

Problem: // returns reported viscosity for input O=C1CCCCCO1
Result: 5.76 ± 0.23 mPa·s

Problem: // returns reported viscosity for input O=C1CCCCO1
Result: 3.3 ± 0.13 mPa·s

###

settings: 298.15 K; 100 kPa; Liquid; Frequency=3 MHz; Sing-around technique in a fixed-path interferometer
Reported property: speed of sound (m/s)
Write down the numeric answer in m/s and omit the unit.

Problem: // returns reported speed of sound for input O=C1CCCCCO1
Result: 1548.3

Problem: // returns reported speed of sound for input CC1CC(=O)O1 (centres undefined)
Result: 1352.8

Problem: // returns reported speed of sound for input CC1CCC(=O)O1 (centres undefined)
Result: 1429.2

Problem: // returns reported speed of sound for input O=C1CCCCO1
Result: 1569.2

###

details: 323.15 K; 100 kPa; Liquid; Vibrating tube method
Reported property: mass density (kg/m3)
Write down the numeric answer in kg/m3 and omit the unit.

Problem: // returns reported mass density for input CC1CCC(=O)O1 (stereo not given) [γ-valerolactone]
Result: 1025.74

Problem: // returns reported mass density for input O=C1CCCCO1 [1-oxacyclohexan-2-one]
Result: 1081.16

Problem: // returns reported mass density for input CCCC[n+]1ccn(C)c1.O=S(=O)([N-]S(=O)(=O)C(F)(F)F)C(F)(F)F
Result: 1411.54

Problem: // returns reported mass density for input O=C1CCCCCO1 [6-hexanolactone]
Result: 1050.4

Problem: // returns reported mass density for input CC1CC(=O)O1 (stereo not given) [4-methyl-2-oxetanone]
Result: 1023.19

###

details: 303.15 K; 100 kPa; Liquid; Vibrating tube method
Reported property: mass density (kg/m3)
Write down the numeric answer in kg/m3 and omit the unit.

Problem: // returns reported mass density for input O=C1CCCCO1
Result: 1099.44

Problem: // returns reported mass density for input O=C1CCCCCO1
Result: 1067.41

Problem: // returns reported mass density for input CCCC[n+]1ccn(C)c1.O=S(=O)([N-]S(=O)(=O)C(F)(F)F)C(F)(F)F
Result: 1431.58

Problem: // returns reported mass density for input CC1CCC(=O)O1 (stereo not given)
Result: 1044.58

Problem: // returns reported mass density for input CC1CC(=O)O1 (stereo not given)
Result: 1045.31

###

settings: 293.15 K; 100 kPa; Liquid; Frequency=3 MHz; Sing-around technique in a fixed-path interferometer
Reported property: speed of sound (m/s)
Write down the numeric answer in m/s and omit the unit.

Problem: // returns reported speed of sound for input O=C1CCCCO1 [1-oxacyclohexan-2-one]
Result: 1587.2

Problem: // returns reported speed of sound for input O=C1CCCCCO1 [6-hexanolactone]
Result: 1567.8

Problem: // returns reported speed of sound for input CC1CCC(=O)O1 (centres undefined) [γ-valerolactone]
Result: 1447.3

Problem: // returns reported speed of sound for input CC1CC(=O)O1 (centres undefined) [4-methyl-2-oxetanone]
Result: 1371
